Record set: Ki | Cannabinoid receptor 1 (Homo sapiens) | literature, multiple sources.

[
  {
    "molecule": "O=C(NS(=O)(=O)c1ccc(Cl)cc1)N1CC(c2ccccc2)C(c2ccc(Cl)cc2)=N1 (stereo not given)",
    "reported-measurement": "> 1 µM"
  },
  {
    "molecule": "COC(=O)Cn1nnc(Cc2ccc(-c3ccccc3)cc2)n1",
    "reported-measurement": "> 10 µM"
  },
  {
    "molecule": "CCN(CC)c1ccc(C(NC(=O)c2ccccc2)NC(=O)c2ccccc2)cc1",
    "reported-measurement": "> 20 µM"
  },
  {
    "molecule": "COc1ccc2c(c1)OC(C)(C)c1cn(CCN3CCN(C(=O)C4CCCCC4)CC3)nc1-2",
    "reported-measurement": "> 40 µM"
  }
]

Prompt line: Query the reported Ki for Cannabinoid receptor 1 (Homo sapiens); item: O=C(Cc1ccccc1)NC(NC(=O)Cc1ccccc1)c1ccc(N2CCCC2)cc1
Response line: > 20 µM
